# credit: BindingDB's records for doi:10.1021/jm010246u

molecular target: Telomerase reverse transcriptase (Homo sapiens); test: Apparent telomerase inhibition by G-quadruplex mechanism
Sequence (O14746 whole entry): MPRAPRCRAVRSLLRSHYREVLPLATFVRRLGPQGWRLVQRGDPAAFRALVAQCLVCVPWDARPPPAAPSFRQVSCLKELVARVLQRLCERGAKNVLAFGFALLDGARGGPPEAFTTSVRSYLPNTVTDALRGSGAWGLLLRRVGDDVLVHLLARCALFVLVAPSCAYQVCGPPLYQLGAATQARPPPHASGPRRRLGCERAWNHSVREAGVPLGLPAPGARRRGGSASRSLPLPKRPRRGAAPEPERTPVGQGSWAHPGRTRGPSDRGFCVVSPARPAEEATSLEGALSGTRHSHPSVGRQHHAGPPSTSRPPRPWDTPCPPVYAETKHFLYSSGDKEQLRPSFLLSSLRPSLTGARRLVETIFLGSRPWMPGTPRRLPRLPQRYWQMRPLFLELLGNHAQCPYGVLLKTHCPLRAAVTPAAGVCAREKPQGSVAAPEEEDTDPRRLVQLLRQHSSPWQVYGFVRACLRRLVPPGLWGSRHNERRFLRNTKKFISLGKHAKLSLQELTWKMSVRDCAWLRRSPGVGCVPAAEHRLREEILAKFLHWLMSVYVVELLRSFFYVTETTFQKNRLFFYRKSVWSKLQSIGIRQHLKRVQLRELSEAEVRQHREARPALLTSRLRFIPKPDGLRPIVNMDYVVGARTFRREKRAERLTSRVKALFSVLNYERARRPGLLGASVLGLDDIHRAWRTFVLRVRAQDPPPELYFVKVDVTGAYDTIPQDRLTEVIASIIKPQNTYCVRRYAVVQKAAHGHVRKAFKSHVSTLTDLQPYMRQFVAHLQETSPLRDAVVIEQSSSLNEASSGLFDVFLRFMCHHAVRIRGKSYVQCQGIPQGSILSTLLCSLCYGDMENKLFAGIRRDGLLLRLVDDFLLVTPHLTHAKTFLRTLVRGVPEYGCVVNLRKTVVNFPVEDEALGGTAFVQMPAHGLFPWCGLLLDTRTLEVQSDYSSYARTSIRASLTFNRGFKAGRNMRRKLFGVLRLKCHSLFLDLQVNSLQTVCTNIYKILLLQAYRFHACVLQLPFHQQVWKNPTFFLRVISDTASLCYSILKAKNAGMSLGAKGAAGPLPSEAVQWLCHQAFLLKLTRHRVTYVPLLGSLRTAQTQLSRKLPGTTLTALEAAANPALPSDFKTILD
READOUT KIND: pIC50
# pIC50: negative log10 of molar concentration; output just the value

Before answering, review these 3 worked examples.
SMILES INPUT	TARGET OR SYSTEM	READOUT KIND	OBSERVED MEASUREMENT
C[n+]1ccc(-c2c3nc(c(-c4cccc([N+](=O)[O-])c4)c4nc(c(-c5cc[n+](C)cc5)c5ccc([nH]5)c(-c5cccc([N+](=O)[O-])c5)c5ccc2[nH]5)C=C4)C=C3)cc1	Telomerase reverse transcriptase (Homo sapiens)	pIC50	4.60
CC[n+]1ccc(-c2c3nc(c(-c4cc[n+](CC)cc4)c4ccc([nH]4)c(-c4cc[n+](CC)cc4)c4ccc([nH]4)c(-c4cc[n+](CC)cc4)c4nc2C=C4)C=C3)cc1	Telomerase reverse transcriptase (Homo sapiens)	pIC50	4.60
C[n+]1ccc(-c2c3nc(c(-c4cc[n+](C)cc4)c4ccc([nH]4)c(-c4cc[n+](C)cc4)c4nc(c(-c5cc[n+](C)cc5)c5ccc2[nH]5)C=C4)C=C3)cc1	Telomerase reverse transcriptase (Homo sapiens)	pIC50	5.10

Req: # input compound: C[n+]1ccc(-c2c3nc(c(-c4cc[n+](C)cc4)c4ccc([nH]4)c(-c4cccc([N+](=O)[O-])c4)c4ccc([nH]4)c(-c4cc[n+](C)cc4)c4nc2C=C4)C=C3)cc1 ; wanted: its pIC50
Resp: 4.92
